Listing of entries alongside the reported apparent KD of MS2 coat protein.
# Test system: MS2 coat protein
# Protocol Summary: apparent KD of MS2 coat protein; designed switch direction (-1 OFF switch, 1 ON switch): -1; higher = weaker reporter binding
# Applied Conditions: input ligand: none
Readout: apparent KD of MS2 coat protein (nM)

• AAAACAAAAGGAUAUACAUGAGGAUCACCCAUGUGGCGAUAAAUCGCCGCUAAACCAUGUAGAAGGUUUGCGAA [EX3 A.2] (Eterna round: R97, puzzle: Exclusion 3) = 42.6
• CAGUAUCUAGGAUAUACGCUGGGUACUAUUCUCAAGUCAGGACAUGAGGAUCACCCAUGUAGAAGGAGAAGCAU [EX2 A.28] (Eterna round: R97, puzzle: Exclusion 2) = 34
• CUAAAUCAUGUAGGAUAUGCGUGGCGAAGCUAUGCAGAAGGACAUGAGGAUCACCCAUGUCUUUCCGUCUGCGUACAGACGGAA [JL ENG1 1.19] (Eterna round: R96, puzzle: Exclusion NG 1) = 23.5
• UUUUCACAUGAGGAUCACCCAUGUGAGGAUAUGGAUUCGCUGGCCGUAGCCAGUGGAUCCAGAAGGCGCAUGAU [JL-ex1-4.06] (Eterna round: R97, puzzle: Exclusion 1) = 32.8
• UUCUCGACAUGAGGAUCACCCAUGUAGUGGGAGAAAACUGGUUAGGAUAUAAAAUAGUACACCGUUUAGAAGGGACCUAUCCUC [Eternabot solution 4] (Eterna round: R96, puzzle: Exclusion NG 3) = 72.3

---

# Tested on: K4 kissing-loop RNA reporter;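 also: bound reporter read as fluorescence of individual clusters on recovered sequencing chips by microscopy, with normalized cluster intensities fitted with a binding model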
# Protocol Summary: apparent KD of K4 kissing-loop reporter; higher = weaker reporter binding
# Applied Conditions: Eterna round: R107; input ligand: tryptophan 2.4 mM
Readout: apparent KD of K4 kissing-loop reporter (nM)

- UAUAUAGUGACGGCCGCCACUAUAGUAAUGUUUUUGUUAGAGUGAUGUUUUGUUUUUUAAUUUUAUAGGACCGGGUUAUAUGUUA [llpmullin]: 240
- CGCCGUAAGGCGAGCGCUCCCACUCCGGAAGGAGCGCCCGAAAGGGCAGGUAGGUCGCCGGAGUGAUGUUCCGGUGGAGGGCUCG [#2 Exclusion - Arginine A Attempt #28 (Inspired by Omei)]: 330
- CGGAGUGAUGUUCCUUUUAUUAAUUAUUAACGAGGACCGGUACGGCCGCCACUCGAUUUAGCUUUUAUUUAAUGCUUGGAUGUUU [JR_SSTryptoA_Sub003]: 77

---

# Test system: MS2 coat protein
# Protocol Summary: apparent KD of MS2 coat protein; higher = weaker reporter binding
# Applied Conditions: Eterna round: R107; input ligand: theophylline 2 mM
Readout: apparent KD of MS2 coat protein (nM)

* AAAAGAGGUGGAAGGAGCGGGAGACAUGAGGAUCACCCAUGUGAAGUGACGAAAGGAUCAUCCCAGGUAGGUCGCCAUGUCGAAA [csstmullin] | 39
* GACAUGAGGAUCACCCAUGUACCGCGAGAAGGAGCGCGGAUAAACGCAGGUAGGUCGCUCGUGGGCUUGUAUUCAAUCGUAAGCU [Anlaaranan] | 207
* GGAUAGGACACGGCCGCCACUAGCUAGGAUACUAGCAACAUUUCCUCACAAGAGGAUCACCCUUGUAGGACCGGGUGUCCUAUCG | 118
* UUCUUUAAGUCGGCCGCCACUGAAACAUGAGGAUCACCCAUGUAUAUUUGUGUAAAGGUGGAUUACAGGACCGGGACUAUAGUAA [JR_Nu23_ExcTryptoB_Sub024] | 11.7
* CAUGUGAAAAUAAGAAGAAGAAGAAUAAAUCGAGGACCGGUACGGCCGCCACUCGUCGAAUCACAUGAGGAUCACCCAUGUAGCC [Tryptofun] | 69
* ACAUGAGGAUCACCCAUGUUUGAUGUUCCUCGAGGACCGGUACGGCCGCCACUCGAACGAGUGGCACGCGAGUGCGCACUCGCGU [aTa] | 15.6
* ACAUGAGGAUCACCCAUGUGUGUAAAUCCUCGAGGACCGGUACGGCCGCCACUCGAUCGAGUGUAAGUUGAAUGUAACAUUCAAC [whbob_SS_trypto A_2s8] | 108
* UUAAUCAUGGAUGAAAACAUUUAUGCAGAAGGAGCGUGAUAAAACACAGGUAGGUCGCUGAAGGGAACAUGAGGAUCACCCAUGU [AstrosSSArgA#17] | 69.5
* GGUACAUGAGGAUCACCCAUGUAUUAGUGCCGAGGACCGGUACGGCCGCCACUCGCUUCACAUGAGGAUCACCCAUGUGUCACUG [SSTA DOUBLE!!! :-D #14] | 36.1
* ACGCUGCAUAGGAAAACUAUGUAGCGAAAUCGAGGACCGGUACGGCCGCCACUCGUCCUCAACAUGAGGAUCACCCAUGUAAUAA [Mat - Exclusion - Trytophan A - D8] | 22.8
* ACGCUGAUUGAUUACAAUCAGCGAAAAGAUACCAGUGGGUAAUCCCACCCUUGGCAGCUUAAACUUGAGGAUCACCCAGGUGGUA [TheoAS 17 #MS2Right #BothOrNeither #AlternativeMS2] | 439
* UGUCAUGGAAACAUGACAGGUUCUACCGGUCGAGGACCGGUACGGCCGCCACUCGAUUGGUGGCACAUGAGGAUCACCCAUGUUA [SS Tryp A #15] | 30.3
* GGAUCAGGAUCGGCCGCCACUGAUAGUGAUCCAACGACAUGAGGAUCACCCAUGUACAUUUUAAUCAGGACCGGGAUCAAGUUCC [Tryp B Ex t7] | 327
* GAUGAUAUUGCAGAUACCAGACACAUGAGGAUCACCCAUGUGUCCUCGCCAGCGGCAUGUGUCCCUUGGCAGCUGCGAUAUCAUC [Colombia] | 41.2
* GGCACAUAGUCGGCCGCCACUAGAAUAUAGUGGAAUAACAUGAGGAUCACCCAUGUAUUUGGGACUAGGACCGGGACUAUGUGCC [Bear] | 42.2
* AAACGCCACGGAAGGAGCGACAUGAGGAUCACCCAUGUAGAUUUGGCGGAUGCACCCUCCUGUCAGGUAGGUCGCCGUGCGAUAA [XArg-B25] | 89
* ACAUGAGGAUCACCCAUGUGAUGGCGCGAUACCAGCUGAUCCCGUGGCCCUUGGCAGCGUCCGGUGUGGUCCGGCGGGUGGGACG [khkmullin] | 31
* UAAUAAUUCCUCAUGUCACGAGUGGCAUAACGAGGACCGGUACGGCCGCCACUCGAACAUGAGGAUCACCCAUGUAGCCACUCGA [M'-T'-T-MS2-T'' - Design 4] | 474
* UUUUACAUGAGGAUCACCCAUGUACAUGGGCGAGGACCGGUACGGCCGCCACUCGUGGGACCCACGGGCCCGCUUAGUGGGUACA [LarryB_001] | 189
* AUACAUGAGGAUCACCCAUGUUAUAGUGAAGGAGCGACAUUUAGGUCAGGUAGGUCGCACUAUUGAAUUAUUAUUCUCAGUUCUU [JR_ExcArginiA_Sub019] | 13.7
* ACAUGAGGGAUGGAUACCAGCGACAUGAGGAUCACCCAUGUAUGAGGAUCACCCAUGUUAUGCCCUUGGCAGCCACAAACAUGAG [UUYMULLIN] | 117
* UUAGUAACGACGGCCGCCACUGGAUAUGAACAUGAGGAUCACCCAUGUAGAGAUCCUAGAAUAAACAGGACCGGGUCUGAUAAUA [Exclusion Tryptophane B GF 2] | 17.3
* CUUGUGCUGACGGCCGCCACUUUAUGGGAGUCCUGUUCUGAUUGAUACAUGAGGAUCACCCAUGUAAGGACCGGGUCGUACCAUA [theeternabot_exclusion_MS2_Trp_B_22] | 22.7
* AAUGGCCGUACCGGAAGGGUGAUCCUCAAACGAGGACCGGUACGGCCGCCACUCGAUAACAUGAGGAUCACCCAUGUAAUACAUA [whbob_X-Trypto_V2.0] | 699

---

# Test system: MS2 coat protein
# Protocol Summary: apparent KD of MS2 coat protein; designed switch direction (-1 OFF switch, 1 ON switch): -1; higher = weaker reporter binding
# Applied Conditions: Eterna round: R95; input ligand: microRNA oligo, concentration not stated
Listing of entries alongside the reported apparent KD of MS2 coat protein.
Readout: apparent KD of MS2 coat protein (nM)

• UCGAGGUCAGGAUAUACAUGAGGAUCACCCAUGUGGAUGUAAGGUAGGAGAAGAGUAGGUAGAAGGGACGAGAG [JR_Exclu3_Sub049] (puzzle: Exclusion 3) = 37.8
• CCAGAGUGAGGAUAUGCAUAAAGGUGCUGUCCCGUGGCUUGACAUGAGGAUCACCCAUGUAGAAGGUGCGUUGU [Raonra] (puzzle: Exclusion 2) = 38.7
• GAACGCCGGCAGGAUAUGGACAGCCAAAAGGCGCCAGAAGGGCCAACAUGAGGAUCACCCAUGUGUCCUGAUGG [Riceanon] (puzzle: Exclusion 6) = 8.46
• AGAGUGUGAGGAUAUAUGGUGAAGGUGAAGAGAGAGGAGGAGUAGAAGGUACAUGAGGAUCACCCAUGUUUGGA [JR_Exclu4_Sub075] (puzzle: Exclusion 4) = 33
• UUAUAAAGUGUGAGGAUAUGCUGGUCCUUAGAUCAGCAGAAGGCACAUGAGGAUCACCCAUGUAAUAUAUUUUU [Mat - Exclusion 4 - JL Mod - D42] (puzzle: Brourd's mod of Exclusion 4) = 33.9
